Molecular target: T1, human leukocyte elastase (hLE) (human), P08246
T1 chain: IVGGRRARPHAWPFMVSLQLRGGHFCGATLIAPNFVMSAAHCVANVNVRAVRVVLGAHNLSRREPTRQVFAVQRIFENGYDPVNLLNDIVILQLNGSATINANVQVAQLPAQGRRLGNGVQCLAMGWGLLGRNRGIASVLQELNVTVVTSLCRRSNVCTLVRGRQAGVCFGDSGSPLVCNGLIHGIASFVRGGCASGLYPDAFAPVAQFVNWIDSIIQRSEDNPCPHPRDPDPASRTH
Settings: modification not given
pKi: −log10 of the molar value.
readout: pKi

{"binder": "ATKRQDNEILIFWSKDIGYSFTVGGSEIL [CRP55-83 (peptide 17)]", "testValue": 5.14}
